Measured values drawn from ChEMBL document CHEMBL3352338 for this set.

Form field: residual activity (one value per entry).
Tested on: Mast/stem cell growth factor receptor Kit (Homo sapiens), P10721 [D816V]
Sequence (P10721 whole entry D816V): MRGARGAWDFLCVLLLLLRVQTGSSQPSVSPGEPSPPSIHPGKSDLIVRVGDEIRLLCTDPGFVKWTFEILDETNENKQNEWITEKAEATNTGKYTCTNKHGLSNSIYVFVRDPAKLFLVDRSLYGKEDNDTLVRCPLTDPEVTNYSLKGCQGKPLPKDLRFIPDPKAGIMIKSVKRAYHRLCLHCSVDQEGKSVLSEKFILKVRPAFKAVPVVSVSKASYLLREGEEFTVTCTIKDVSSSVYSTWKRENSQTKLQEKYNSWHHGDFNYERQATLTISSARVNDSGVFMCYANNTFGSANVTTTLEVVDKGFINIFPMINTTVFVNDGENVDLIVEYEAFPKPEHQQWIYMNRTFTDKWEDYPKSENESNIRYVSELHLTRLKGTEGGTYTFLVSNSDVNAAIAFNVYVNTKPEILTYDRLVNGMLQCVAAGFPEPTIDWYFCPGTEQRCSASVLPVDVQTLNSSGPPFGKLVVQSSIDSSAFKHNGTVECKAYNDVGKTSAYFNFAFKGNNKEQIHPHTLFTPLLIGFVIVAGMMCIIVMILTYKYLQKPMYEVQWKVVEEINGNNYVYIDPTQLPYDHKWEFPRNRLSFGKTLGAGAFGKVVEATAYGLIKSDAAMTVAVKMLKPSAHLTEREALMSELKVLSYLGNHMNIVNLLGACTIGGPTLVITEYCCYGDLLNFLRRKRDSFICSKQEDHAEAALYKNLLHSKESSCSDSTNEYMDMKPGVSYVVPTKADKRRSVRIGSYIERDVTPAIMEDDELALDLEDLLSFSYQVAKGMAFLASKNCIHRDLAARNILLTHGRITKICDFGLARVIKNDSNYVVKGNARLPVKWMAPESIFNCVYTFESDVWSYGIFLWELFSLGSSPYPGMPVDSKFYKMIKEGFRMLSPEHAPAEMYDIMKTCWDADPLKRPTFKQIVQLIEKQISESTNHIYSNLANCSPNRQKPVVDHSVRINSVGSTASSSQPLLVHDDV
run.description: Inhibition of c-KIT D816V mutant (unknown origin) at 1 uM by KINOMEscanning assay relative to control; values are per cent of control
// unit must come after the numeric part

Recorded residual activity, per entry:
smiles: COc1ccc(-c2cnc3[nH]cc(-c4ccc(OC)c(OC)c4)c3c2)cc1N
tested.system: Mast/stem cell growth factor receptor Kit (Homo sapiens), P10721 [D816V]
residual activity: 0%
--
smiles: COc1ccc(-c2c[nH]c3ncc(-c4ccc(C(=O)N5CCOCC5)c(N)c4)cc23)cc1OC
tested.system: Mast/stem cell growth factor receptor Kit (Homo sapiens), P10721 [D816V]
residual activity: 1.4%
--
smiles: COc1cc(-c2c[nH]c3ncc(-c4cccc(N)c4)cc23)cc(OC)c1OC
tested.system: Mast/stem cell growth factor receptor Kit (Homo sapiens), P10721 [D816V]
residual activity: 2.1%
--
smiles: COc1ccc(-c2c[nH]c3ncc(-c4cc(OC)c(OC)c(OC)c4)cc23)cc1OC
tested.system: Mast/stem cell growth factor receptor Kit (Homo sapiens), P10721 [D816V]
residual activity: 0%

Pending compound:
Kindly note the recorded residual activity for `COc1ccc(-c2cnc3[nH]cc(-c4ccc(OC)c(OC)c4)c3c2)cc1OC` , which is 0%

---

run.description: Antiproliferative activity against human HMC-1.2 cells carrying V560G, D816V mutant assessed as cell growth inhibition by MTT assay
Type: functional, cell-based
property.name: log10(IC50) (log10 of the value in nM)
Form field - Quantity: IC50; Unit: nM; Scale: log10

Recorded log10(IC50), per entry:
compound: COc1ccc(-c2cnc3[nH]cc(-c4ccc(OC)c(OC)c4)c3c2)cc1N
log10(IC50): 2.94
--
compound: COc1ccc(-c2c[nH]c3ncc(-c4cccc(N)c4)cc23)cc1OC
log10(IC50): 3.23
--
compound: COc1ccc(-c2c[nH]c3ncc(-c4ccc(C(=O)N5CCOCC5)c(N)c4)cc23)cc1OC
log10(IC50): 3.30
--
compound: COc1cc(-c2c[nH]c3ncc(-c4cccc(N)c4)cc23)cc(OC)c1OC
log10(IC50): 2.91
--
compound: Cc1nc(Nc2ncc(C(=O)Nc3c(C)cccc3Cl)s2)cc(N2CCN(CCO)CC2)n1 [DASATINIB]
log10(IC50): 2.91

Kindly note the recorded log10(IC50) for Cc1ccc(C(=O)Nc2ccc(CN3CCN(C)CC3)c(C(F)(F)F)c2)cc1C#Cc1cnc2cccnn12 [PONATINIB] , which is 2.54

Kindly note the recorded log10(IC50) for Cc1ccc(NC(=O)c2ccc(CN3CCN(C)CC3)cc2)cc1Nc1nccc(-c2cccnc2)n1 [IMATINIB] , which is 4.23

Kindly note the recorded log10(IC50) for `COc1ccc(-c2c[nH]c3ncc(-c4cc(OC)c(OC)c(OC)c4)cc23)cc1OC` , which is 2.96

Kindly note the recorded log10(IC50) for `COc1ccc(-c2cnc3[nH]cc(-c4ccc(OC)c(OC)c4)c3c2)cc1OC` , which is 2.88

Kindly note the recorded log10(IC50) for `COc1ccc(-c2c[nH]c3ncc(-c4ccc(C)c(N)c4)cc23)cc1OC` , which is 3.16

---

tested.system: Mast/stem cell growth factor receptor Kit (Homo sapiens)
study.conditions: 5 uM
Description: Inhibition of c-KIT in imatinib-resistant human HMC-1.2 cells assessed as suppression of Erk phosphorylation at 5 uM after 1 hr by Western immunoblotting analysis
Active and inactive are the calls of the source. No cut-off for these calls is given here.

smiles: COc1ccc(-c2c[nH]c3ncc(-c4cc(OC)c(OC)c(OC)c4)cc23)cc1OC
inhibition: Active

smiles: COc1ccc(-c2cnc3[nH]cc(-c4ccc(OC)c(OC)c4)c3c2)cc1OC
inhibition: Active

smiles: COc1ccc(-c2cnc3[nH]cc(-c4ccc(OC)c(OC)c4)c3c2)cc1N
inhibition: Active

smiles: COc1cc(-c2c[nH]c3ncc(-c4cccc(N)c4)cc23)cc(OC)c1OC
inhibition: Active

---

tested.system: Hepatocyte growth factor receptor (Homo sapiens) (UniProt P08581)
Sequence (P08581 whole entry): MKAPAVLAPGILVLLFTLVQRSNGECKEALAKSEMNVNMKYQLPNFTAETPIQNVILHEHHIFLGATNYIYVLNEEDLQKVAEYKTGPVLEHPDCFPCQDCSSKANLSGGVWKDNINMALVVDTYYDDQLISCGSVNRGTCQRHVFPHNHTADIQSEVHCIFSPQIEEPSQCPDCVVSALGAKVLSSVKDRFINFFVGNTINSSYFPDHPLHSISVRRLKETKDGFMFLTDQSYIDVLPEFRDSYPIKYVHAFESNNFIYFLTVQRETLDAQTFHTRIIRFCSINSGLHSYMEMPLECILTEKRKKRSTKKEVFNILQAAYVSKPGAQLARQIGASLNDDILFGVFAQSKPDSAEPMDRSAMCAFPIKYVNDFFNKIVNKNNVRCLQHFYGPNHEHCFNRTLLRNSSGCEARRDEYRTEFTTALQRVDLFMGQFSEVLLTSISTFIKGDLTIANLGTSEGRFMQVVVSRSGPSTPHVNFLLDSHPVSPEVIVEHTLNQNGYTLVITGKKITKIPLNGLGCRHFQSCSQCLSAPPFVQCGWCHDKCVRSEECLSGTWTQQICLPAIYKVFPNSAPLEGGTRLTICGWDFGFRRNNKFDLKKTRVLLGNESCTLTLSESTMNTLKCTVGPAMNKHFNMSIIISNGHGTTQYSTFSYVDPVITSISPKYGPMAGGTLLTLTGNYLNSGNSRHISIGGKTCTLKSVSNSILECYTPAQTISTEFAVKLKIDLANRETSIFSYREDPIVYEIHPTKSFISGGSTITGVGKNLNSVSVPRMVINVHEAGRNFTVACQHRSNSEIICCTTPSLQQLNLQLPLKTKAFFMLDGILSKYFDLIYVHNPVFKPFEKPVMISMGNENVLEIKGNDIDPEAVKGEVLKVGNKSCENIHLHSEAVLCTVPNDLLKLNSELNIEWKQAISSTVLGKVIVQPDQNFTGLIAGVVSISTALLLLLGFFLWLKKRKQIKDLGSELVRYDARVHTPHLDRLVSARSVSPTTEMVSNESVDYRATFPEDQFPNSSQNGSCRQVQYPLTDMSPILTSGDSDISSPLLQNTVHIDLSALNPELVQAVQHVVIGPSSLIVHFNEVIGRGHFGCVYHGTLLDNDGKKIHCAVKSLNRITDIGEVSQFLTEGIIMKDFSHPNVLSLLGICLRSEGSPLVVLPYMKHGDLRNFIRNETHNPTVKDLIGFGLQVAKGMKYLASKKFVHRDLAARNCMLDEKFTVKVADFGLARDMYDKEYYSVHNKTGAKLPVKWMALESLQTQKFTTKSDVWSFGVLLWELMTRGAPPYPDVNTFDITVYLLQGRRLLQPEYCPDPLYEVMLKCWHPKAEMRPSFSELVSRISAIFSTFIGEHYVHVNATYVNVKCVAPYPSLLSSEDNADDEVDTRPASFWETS
run.description: Inhibition of MET (unknown origin) at 1 uM by KINOMEscanning assay relative to control; values are per cent of control
Form field: residual activity (one value per entry).
# number only, unit % dropped from output

Recorded residual activity, per entry:
smiles: COc1cc(-c2c[nH]c3ncc(-c4cccc(N)c4)cc23)cc(OC)c1OC
observed.measurement: 35
//
smiles: COc1ccc(-c2c[nH]c3ncc(-c4cc(OC)c(OC)c(OC)c4)cc23)cc1OC
observed.measurement: 54
//
smiles: COc1ccc(-c2cnc3[nH]cc(-c4ccc(OC)c(OC)c4)c3c2)cc1N
observed.measurement: 47

Kindly note the recorded residual activity for `COc1ccc(-c2cnc3[nH]cc(-c4ccc(OC)c(OC)c4)c3c2)cc1OC` , which is 34

Kindly note the recorded residual activity for `COc1ccc(-c2c[nH]c3ncc(-c4ccc(C(=O)N5CCOCC5)c(N)c4)cc23)cc1OC` , which is 54

---

tested.system: Platelet-derived growth factor receptor alpha (Homo sapiens)
run.description: Inhibition of PDGFRalpha (unknown origin) at 1 uM by KINOMEscanning assay relative to control; values are per cent of control
Threshold rule: residual activity greater than or equal to 40% is label 1; below that, label 0.

smiles: COc1ccc(-c2c[nH]c3ncc(-c4ccc(C(=O)N5CCOCC5)c(N)c4)cc23)cc1OC
category.label: label 0

smiles: COc1ccc(-c2c[nH]c3ncc(-c4cc(OC)c(OC)c(OC)c4)cc23)cc1OC
category.label: label 1

smiles: COc1ccc(-c2cnc3[nH]cc(-c4ccc(OC)c(OC)c4)c3c2)cc1N
category.label: label 0

smiles: COc1ccc(-c2cnc3[nH]cc(-c4ccc(OC)c(OC)c4)c3c2)cc1OC
category.label: label 0

Kindly review the next molecule as well.
Q: Please tell me: is the molecule `COc1cc(-c2c[nH]c3ncc(-c4cccc(N)c4)cc23)cc(OC)c1OC` at or over 40% in terms of residual activity?
A: label 1

---

tested.system: Serine/threonine-protein kinase 17A (Homo sapiens)
Sequence (whole entry): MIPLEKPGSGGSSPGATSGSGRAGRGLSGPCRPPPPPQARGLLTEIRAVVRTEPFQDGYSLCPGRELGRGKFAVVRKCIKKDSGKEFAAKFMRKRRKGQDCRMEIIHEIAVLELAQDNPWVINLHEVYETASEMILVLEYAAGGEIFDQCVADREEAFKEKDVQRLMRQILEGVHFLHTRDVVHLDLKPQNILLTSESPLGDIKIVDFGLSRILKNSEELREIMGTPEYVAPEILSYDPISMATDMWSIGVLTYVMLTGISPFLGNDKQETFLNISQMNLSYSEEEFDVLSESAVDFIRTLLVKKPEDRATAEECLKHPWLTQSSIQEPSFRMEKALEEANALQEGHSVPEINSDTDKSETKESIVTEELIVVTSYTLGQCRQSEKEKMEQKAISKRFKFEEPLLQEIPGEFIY
run.description: Inhibition of DRAK1 (unknown origin) at 1 uM by KINOMEscanning assay relative to control; values are per cent of control
property.name: residual activity (%)
# number only, unit % dropped from output

smiles: COc1ccc(-c2c[nH]c3ncc(-c4cc(OC)c(OC)c(OC)c4)cc23)cc1OC
observed.measurement: 0.95
--
smiles: COc1ccc(-c2cnc3[nH]cc(-c4ccc(OC)c(OC)c4)c3c2)cc1OC
observed.measurement: 0.2
--
smiles: COc1ccc(-c2cnc3[nH]cc(-c4ccc(OC)c(OC)c4)c3c2)cc1N
observed.measurement: 2.4

Kindly note the recorded residual activity for `COc1cc(-c2c[nH]c3ncc(-c4cccc(N)c4)cc23)cc(OC)c1OC` , which is 86

Kindly note the recorded residual activity for `COc1ccc(-c2c[nH]c3ncc(-c4ccc(C(=O)N5CCOCC5)c(N)c4)cc23)cc1OC` , which is 0.25

---

tested.system: Mast/stem cell growth factor receptor Kit (Homo sapiens, UniProt P10721, D816V)
Sequence (P10721 26-976 D816V limits assumed): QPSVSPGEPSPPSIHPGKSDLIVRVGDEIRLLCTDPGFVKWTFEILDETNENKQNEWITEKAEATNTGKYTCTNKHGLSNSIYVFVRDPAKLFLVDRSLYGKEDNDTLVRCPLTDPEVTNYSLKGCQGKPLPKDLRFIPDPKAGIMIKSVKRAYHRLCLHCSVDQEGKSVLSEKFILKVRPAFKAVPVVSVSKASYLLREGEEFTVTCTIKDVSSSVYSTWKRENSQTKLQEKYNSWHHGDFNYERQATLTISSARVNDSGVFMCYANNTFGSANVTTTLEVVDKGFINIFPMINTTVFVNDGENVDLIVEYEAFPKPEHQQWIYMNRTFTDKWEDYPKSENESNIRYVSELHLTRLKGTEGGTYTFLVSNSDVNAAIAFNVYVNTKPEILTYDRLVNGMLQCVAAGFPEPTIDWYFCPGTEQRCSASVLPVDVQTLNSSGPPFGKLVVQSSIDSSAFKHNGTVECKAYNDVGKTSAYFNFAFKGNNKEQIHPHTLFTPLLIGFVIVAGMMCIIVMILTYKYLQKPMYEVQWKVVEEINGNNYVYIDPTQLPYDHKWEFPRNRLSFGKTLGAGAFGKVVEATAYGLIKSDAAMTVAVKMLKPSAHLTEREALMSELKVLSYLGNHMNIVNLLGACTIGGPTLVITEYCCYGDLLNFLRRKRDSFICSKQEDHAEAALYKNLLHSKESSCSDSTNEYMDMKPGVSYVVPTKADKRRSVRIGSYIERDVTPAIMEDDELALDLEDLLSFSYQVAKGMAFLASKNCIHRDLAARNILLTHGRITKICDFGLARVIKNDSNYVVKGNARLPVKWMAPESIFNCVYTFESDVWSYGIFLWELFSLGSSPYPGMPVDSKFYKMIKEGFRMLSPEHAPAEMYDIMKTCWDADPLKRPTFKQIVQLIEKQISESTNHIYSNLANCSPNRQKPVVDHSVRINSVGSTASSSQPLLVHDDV
run.description: Inhibition of c-KIT D816V mutant (unknown origin)
Form field: IC50 (one value per entry).
# number only, unit nM dropped from output

Recorded IC50, per entry:
smiles: COc1ccc(-c2cnc3[nH]cc(-c4ccc(OC)c(OC)c4)c3c2)cc1
IC50, nM: 32.1
//
smiles: COc1ccc(-c2c[nH]c3ncc(-c4cccc(C)c4)cc23)cc1OC
IC50, nM: 261
//
smiles: COc1ccc(-c2c[nH]c3ncc(-c4ccc(Cl)cc4)cc23)cc1OC
IC50, nM: 457
//
smiles: COc1ccc(-c2c[nH]c3ncc(-c4ccc(N)cc4)cc23)cc1OC
IC50, nM: 9.1
//
smiles: COc1ccc(-c2c[nH]c3ncc(-c4cccnc4)cc23)cc1OC
IC50, nM: 60.1

Kindly note the recorded IC50 for `COc1cc(N)cc(-c2cnc3[nH]cc(-c4ccc(OC)c(OC)c4)c3c2)c1` , which is 26.2

Kindly note the recorded IC50 for `COc1ccc(-c2c[nH]c3ncc(-c4ccc(C#N)cc4)cc23)cc1OC` , which is 426

Kindly note the recorded IC50 for `COc1ccc(-c2c[nH]c3ncc(-c4ccc(C)c(N)c4)cc23)cc1OC` , which is 24.6

Kindly note the recorded IC50 for `COc1ccc(-c2cnc3[nH]cc(-c4ccc(OC)c(OC)c4)c3c2)cc1OC` , which is 2.1

Kindly note the recorded IC50 for `COc1ccc(-c2c[nH]c3ncc(-c4ccc(C)cc4)cc23)cc1OC` , which is 571

Kindly note the recorded IC50 for `COc1ccc(-c2c[nH]c3ncc(-c4ccc(OCCN5CCOCC5)c(N)c4)cc23)cc1OC` , which is 13.9

Kindly note the recorded IC50 for `Nc1cccc(-c2cnc3[nH]cc(-c4ccccc4N)c3c2)c1` , which is 1420

Kindly note the recorded IC50 for `COc1ccc(-c2c[nH]c3ncc(-c4ccccc4C)cc23)cc1OC` , which is 785

Kindly note the recorded IC50 for `COc1ccc(-c2c[nH]c3ncc(-c4cccc(N)c4)cc23)cc1` , which is 398

Kindly note the recorded IC50 for `COc1cc(-c2c[nH]c3ncc(-c4cccc(N)c4)cc23)cc(OC)c1OC` , which is 97.7

Kindly note the recorded IC50 for `COc1ccc(-c2c[nH]c3ncc(-c4cccc(NS(=O)(=O)c5ccccc5)c4)cc23)cc1OC` , which is 126

Kindly note the recorded IC50 for `Nc1cccc(-c2cnc3[nH]cc(-c4ccc(Cl)cc4)c3c2)c1` , which is 2260

Kindly note the recorded IC50 for `COc1ccc(-c2c[nH]c3ncc(-c4cnc(N)nc4)cc23)cc1OC` , which is 67.8

Kindly note the recorded IC50 for `COc1ccc(-c2c[nH]c3ncc(-c4ccccc4N)cc23)cc1OC` , which is 1330

Kindly note the recorded IC50 for `COc1cccc(-c2cnc3[nH]cc(-c4ccc(OC)c(OC)c4)c3c2)c1` , which is 28.7
